Answer each item with its documented TGI.
test system: MDA-MB-435; assay: NCI tumour cell line growth inhibition, 48 h

Consider the following illustrative entries.
>>> readout_value("CCCCCCCC(=O)O[C@H]1[C@H]2[C@@H](CC1(C)C)C(=O)[C@]13O[C@H]1C(=O)[C@]1(CO1)[C@]23C")
"75 µM"
>>> readout_value("S=C1NC2=C(CCOc3c2ccc2ccccc32)C(c2ccc(Cl)cc2)N1 (stereo not given)")
"> 100 µM"
>>> readout_value("CCOC(=O)CCC(NC(=O)c1ccc(Nc2nc3cc(N)cc(N)c3nc2-c2ccccc2)cc1)C(=O)OCC (stereo not given)")
"> 60.4 µM"
>>> readout_value("Cc1cnc2cc(Cl)ccc2c1SCC(=O)O")
"> 100 µM"
>>> readout_value("Fc1sc2c(c1F)C1CCC2C1 (stereo not given)")
"> 100 µM"

List the reported TGI of each compound below.
1. COC(=O)CCCCCCCCC(=O)c1c(C)[nH]c(/C=C2\N=C(c3ccc[nH]3)C=C2OC)c1C
2. COC1OC(=O)C(OC)C(OC)C1OC (stereo not given)

Response:
> 100 µM
> 100 µM
